Target: T1, EsCas13d, nuclease-dead (Eubacterium siraeum, UniProt B0MS50, R295A;H300A;R849A;H854A)
T1 sequence: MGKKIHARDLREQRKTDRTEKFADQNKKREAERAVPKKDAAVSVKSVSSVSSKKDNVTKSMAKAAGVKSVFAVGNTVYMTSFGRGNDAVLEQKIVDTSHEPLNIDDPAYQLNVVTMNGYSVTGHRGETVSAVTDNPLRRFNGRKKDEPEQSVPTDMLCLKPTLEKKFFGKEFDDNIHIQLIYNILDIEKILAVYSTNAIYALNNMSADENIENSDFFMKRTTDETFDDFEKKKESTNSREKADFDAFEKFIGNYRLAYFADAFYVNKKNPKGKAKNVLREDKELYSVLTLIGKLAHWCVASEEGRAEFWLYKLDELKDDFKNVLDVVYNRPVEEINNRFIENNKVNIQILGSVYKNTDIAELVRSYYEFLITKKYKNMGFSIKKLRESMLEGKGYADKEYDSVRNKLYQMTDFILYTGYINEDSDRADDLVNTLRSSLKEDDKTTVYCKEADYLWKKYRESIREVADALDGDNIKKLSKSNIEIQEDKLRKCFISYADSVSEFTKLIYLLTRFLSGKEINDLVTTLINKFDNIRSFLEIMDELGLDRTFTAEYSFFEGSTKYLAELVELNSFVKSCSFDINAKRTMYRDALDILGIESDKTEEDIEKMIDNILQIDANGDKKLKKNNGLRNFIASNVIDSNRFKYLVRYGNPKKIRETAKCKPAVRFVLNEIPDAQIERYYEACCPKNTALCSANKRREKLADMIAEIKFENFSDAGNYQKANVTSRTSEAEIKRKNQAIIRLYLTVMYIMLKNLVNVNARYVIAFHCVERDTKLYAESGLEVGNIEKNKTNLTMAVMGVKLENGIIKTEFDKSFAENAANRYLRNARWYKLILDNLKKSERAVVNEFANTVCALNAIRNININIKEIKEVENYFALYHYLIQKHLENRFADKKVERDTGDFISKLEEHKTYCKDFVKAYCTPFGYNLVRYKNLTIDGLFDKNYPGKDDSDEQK
Test: crRNA (strand 1, pre-loaded); Mg2+; 40 mM Tris-HCl pH 7.5, 150 mM NaCl, 6 mM MgCl2, 1 mM DTT, 0.1% Tween-20, 0.2 mg/ml BSA; 25 C; 10 min per concentration, then washed
Settings: tags: His6-TwinStrep-SUMO cleaved; N-terminal SNAP kept (SNAP-Surface 488); label: 3' end held by stalled T7 RNA polymerase
Catalogue of pKd readings, one per entry.
Would you please state pKd, meaning minus log10 of the concentration in mol/L, as a bare number?

# example entries with known answers
target 1 A9C,U10G (mixed) RNA 1: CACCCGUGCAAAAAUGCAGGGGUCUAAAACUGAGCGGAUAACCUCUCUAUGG RNA 2: GGGAAUGGAUCCACAUCUACGAAUUCGUACCAUAGAGAGGUGCUCCGCUCACCGAGAUCGGAAGAGCACACGU: 7.79
target 2 MT 5'PFS UAU 3'PFS AUU (mixed) RNA 1: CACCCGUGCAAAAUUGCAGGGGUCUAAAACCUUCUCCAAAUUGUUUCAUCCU RNA 2: GGGAAUGGAUCCACAUCUACGAAUUCUAUAGGAUGAAACAAUUUGGAGAAGAUUAGAUCGGAAGAGCACACGU: 7.61
target 2 MT 5'PFS AGU 3'PFS AAU (mixed) RNA 1: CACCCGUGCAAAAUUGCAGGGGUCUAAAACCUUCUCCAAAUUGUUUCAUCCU RNA 2: GGGAAUGGAUCCACAUCUACGAAUUCAGUAGGAUGAAACAAUUUGGAGAAGAAUAGAUCGGAAGAGCACACGU: 8.12
target 1 C7A,A9C (mixed) RNA 1: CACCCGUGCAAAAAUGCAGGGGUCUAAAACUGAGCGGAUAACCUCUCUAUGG RNA 2: GGGAAUGGAUCCACAUCUACGAAUUCGUACCAUAGAGAGGUUCUACGCUCACCGAGAUCGGAAGAGCACACGU: 7.87
target 1 G5A,G15C (mixed) RNA 1: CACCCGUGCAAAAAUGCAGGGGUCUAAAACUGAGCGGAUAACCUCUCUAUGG RNA 2: GGGAAUGGAUCCACAUCUACGAAUUCGUACCAUAGACAGGUUAUCCACUCACCGAGAUCGGAAGAGCACACGU: 7.27

Please report the measured pKd for target 1 C7A,U10A (mixed) RNA 1: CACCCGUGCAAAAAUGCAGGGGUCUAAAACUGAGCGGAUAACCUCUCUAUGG RNA 2: GGGAAUGGAUCCACAUCUACGAAUUCGUACCAUAGAGAGGUAAUACGCUCACCGAGAUCGGAAGAGCACACGU
8.07

Identify measured pKd associated with target 1 MT 5'PFS UAG 3'PFS CAG (mixed) RNA 1: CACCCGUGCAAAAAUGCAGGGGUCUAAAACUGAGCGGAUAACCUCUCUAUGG RNA 2: GGGAAUGGAUCCACAUCUACGAAUUCUAGCCAUAGAGAGGUUAUCCGCUCACAGAGAUCGGAAGAGCACACGU
7.37

Given target 1 insA 3' of 19,insA 3' of 11 (mixed) RNA 1: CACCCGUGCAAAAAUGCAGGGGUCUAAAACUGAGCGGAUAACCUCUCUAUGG RNA 2: GGGAAUGGAUCCACAUCUACGAAUUCGUACCAUAAGAGAGGUAUAUCCGCUCACCGAGAUCGGAAGAGCACACGU , respond with its pKd.
7.38
